Values compiled from PubChem BioAssay AID1159580.

assay: chemical genetic growth profiling, strain panel (AID 1159580);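 note: tested at 20 µM; growth read once vehicle control cultures reached saturation at 30 °C; 1 = growth at the plate median or of vehicle wells; lower values mean less growth of the strain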; details: S. cerevisiae deletion strains, growth OD, locus YPL241C, strain CIN2, stronger effect = lower value
In all, about 5,500 compounds went through this assay and about 2,000 (36%) were called active. Roughly 18% stayed inconclusive and do not appear here. The list shows a part of the results.
Documented normalized growth across a set of molecules

molecule: Cc1ccc2cc(C)c(C)cc2c1
normalized growth: 0.995

molecule: O=C(O)c1cnn(-c2ccccc2)c1C(F)(F)F
normalized growth: 1.01

molecule: CC(=O)/C(=C\Nc1ncccn1)S(=O)(=O)c1ccc(Cl)cc1
normalized growth: 0.98

molecule: O=C(Nc1ccccc1C(=O)NC1CCCCNC1=O)c1cccs1 (centres undefined)
normalized growth: 1.03

molecule: CN(C)/C=C(\C#N)C(=O)Nc1ccc(F)c(Cl)c1
normalized growth: 0.977

molecule: CC(C)=CCc1c(O)cc(C)oc1=O
normalized growth: 0.997

molecule: CC12CCC(C1)C(C)(C)C2NC(=O)c1cccs1 (centres undefined)
normalized growth: 0.976

molecule: NC(N)=NOCC[C@H](N)C(=O)O
normalized growth: 0.993

molecule: N#C/C(=C\c1ccc(O)c(O)c1)C(=O)Nc1ccccc1
normalized growth: 1.01

molecule: O=Nc1ccc2oc(=O)ccc2c1
normalized growth: 0.999

molecule: COc1ccc2cc1Oc1ccc(cc1)C[C@H]1c3cc(c(OC)cc3CCN1C)Oc1c(OC)c(OC)cc3c1[C@H](C2)N(C)CC3
normalized growth: 1

molecule: CC(=O)O[C@@](C)(CCC=C(C)C)C1CC=C(C)CC1 (some centres undefined)
normalized growth: 1.01

molecule: CNC1(C)C2CCC(C2)C1(C)C (centres undefined)
normalized growth: 1

molecule: N#Cc1cnn(-c2ccccc2)c1-n1cccc1
normalized growth: 0.953

molecule: CC(C)(C)CC(C)(C)c1ccc(OCCOCC[N+](C)(C)Cc2ccccc2)cc1
normalized growth: 1

molecule: CC(=O)OCc1ccc(/C=C(\C#N)S(=O)(=O)c2ccc(Cl)cc2)o1
normalized growth: 0.98

molecule: C[N+]1(C)C2CCC1CC(OC(=O)c1c[nH]c3ccccc13)C2 (centres undefined)
normalized growth: 1

molecule: O=C1CC(c2ccccc2)Oc2ccccc21 (centres undefined)
normalized growth: 0.977

molecule: OC[C@H]1NC[C@@H](O)[C@@H]1O
normalized growth: 1.01

molecule: FC(F)(F)c1ccnc(-n2ccc(-c3cccs3)n2)n1
normalized growth: 0.9

molecule: O=C(O)CSCCOc1ccccc1
normalized growth: 0.994

molecule: O[Si](CCCN1CCCCC1)(c1ccc(F)cc1)C1CCCCC1 (centres undefined)
normalized growth: 0.994

molecule: COc1ccc(C[C@H]2NC[C@H](O)[C@H]2OC(C)=O)cc1
normalized growth: 0.652

molecule: Oc1ccc2c3c1O[C@H]1c4[nH]c5c(c4C[C@@]4(O)[C@@H](C2)N(CC2CC2)CC[C@]314)C[C@@]1(O)[C@H]2Cc3ccc(O)c4c3[C@@]1(CCN2CC1CC1)[C@H]5O4
normalized growth: 0.968
